recorded conditions: in DMF, 313.2 K
readout: solubility (mole fraction)
Answers are plain numbers.

// solubility (mole fraction) lookup, key: "Cc1ccc(-c2ncc(Cl)cc2-c2ccc(S(C)(=O)=O)cc2)cn1"
0.374

* * *

recorded conditions: in DMAc, 298.2 K
readout: solubility (mole fraction)
Give bare numbers.

Recorded solubility (mole fraction) of "Cc1ccc(-c2ncc(Cl)cc2-c2ccc(S(C)(=O)=O)cc2)cn1" , please.
0.0811

* * *

recorded conditions: in DMF, 293.2 K
readout: solubility (mole fraction)
Give bare numbers.

Requested read-out: solubility (mole fraction). Entry: "Cc1ccc(-c2ncc(Cl)cc2-c2ccc(S(C)(=O)=O)cc2)cn1"
0.0369

* * *

recorded conditions: in methanol, 298.2 K
readout: solubility (mole fraction)
Give bare numbers.

Given the entry "Cc1ccc(-c2ncc(Cl)cc2-c2ccc(S(C)(=O)=O)cc2)cn1" , report its measured solubility (mole fraction).
0.0379

* * *

recorded conditions: in PEG-200, 298.2 K
readout: solubility (mole fraction)
One number for each entry.

Need solubility (mole fraction), item "Cc1ccc(-c2ncc(Cl)cc2-c2ccc(S(C)(=O)=O)cc2)cn1"
0.135

* * *

recorded conditions: in ethylene glycol, 308.2 K
readout: solubility (mole fraction)

Quick one: solubility (mole fraction) of "Cc1ccc(-c2ncc(Cl)cc2-c2ccc(S(C)(=O)=O)cc2)cn1" ?
0.139

* * *

recorded conditions: in DMSO, 298.2 K
readout: solubility (mole fraction)
Numbers only.

Please look up its solubility (mole fraction): "Cc1ccc(-c2ncc(Cl)cc2-c2ccc(S(C)(=O)=O)cc2)cn1"
0.0605

* * *

recorded conditions: in ethanol, 303.2 K
readout: solubility (mole fraction)
Give bare numbers.

Please give the measured solubility (mole fraction) for this compound: "Cc1ccc(-c2ncc(Cl)cc2-c2ccc(S(C)(=O)=O)cc2)cn1"
0.0807

* * *

recorded conditions: in water, 313.2 K
readout: solubility (mole fraction)
Numbers only.

Could you tell me which solubility (mole fraction) is on file for "Cc1ccc(-c2ncc(Cl)cc2-c2ccc(S(C)(=O)=O)cc2)cn1" ?
2.44e-05

* * *

recorded conditions: in ethylene glycol, 293.2 K
readout: solubility (mole fraction)
One number for each entry.

Value lookup for solubility (mole fraction); key = "Cc1ccc(-c2ncc(Cl)cc2-c2ccc(S(C)(=O)=O)cc2)cn1"
0.113

* * *

recorded conditions: in propylene glycol, 298.2 K
readout: solubility (mole fraction)
One number for each entry.

Record request: solubility (mole fraction) value, item "Cc1ccc(-c2ncc(Cl)cc2-c2ccc(S(C)(=O)=O)cc2)cn1"
0.0605

* * *

recorded conditions: in DMSO, 308.2 K
readout: solubility (mole fraction)
Give bare numbers.

Entry "Cc1ccc(-c2ncc(Cl)cc2-c2ccc(S(C)(=O)=O)cc2)cn1" : reported solubility (mole fraction) = ?
0.253

* * *

recorded conditions: in DMF, 298.2 K
readout: solubility (mole fraction)
Give bare numbers.

# query: solubility (mole fraction) of entry "Cc1ccc(-c2ncc(Cl)cc2-c2ccc(S(C)(=O)=O)cc2)cn1"
0.069

* * *

recorded conditions: in 1,4-dioxane, 298.2 K
readout: solubility (mole fraction)
Give bare numbers.

Consider the molecule "Cc1ccc(-c2ncc(Cl)cc2-c2ccc(S(C)(=O)=O)cc2)cn1" and give its measured solubility (mole fraction).
0.073

* * *

recorded conditions: in PEG-600, 298.2 K
readout: solubility (mole fraction)
Answers are plain numbers.

Record request: solubility (mole fraction) value, item "Cc1ccc(-c2ncc(Cl)cc2-c2ccc(S(C)(=O)=O)cc2)cn1"
0.354
